- System: HDFB
- protocol_description: growth inhibition relative to DMSO control (fraction); higher = stronger growth inhibition
- condition_summary: GSK-LSD1 concentration 0 nM; partner concentration 10 nM; treatment time: 6 days
parameter_measured: growth inhibition
Field format: numeric only.

// output growth inhibition; input c1ccc([C@@H]2C[C@H]2NC2CCNCC2)cc1 [GSK-LSD1] + Cc1cc2c(cc1N1C(=O)c3cccc4c(CCCO)ccc(c34)C1=O)n(C)c(=O)n2C [BAY299] ; system HDFB -0.0132

// output growth inhibition; input c1ccc([C@@H]2C[C@H]2NC2CCNCC2)cc1 [GSK-LSD1] + Nc1ccccc1NC(=O)c1ccc(CNC(=O)OCc2cccnc2)cc1 [Entinostat] ; system HDFB 0.154

// output growth inhibition; input c1ccc([C@@H]2C[C@H]2NC2CCNCC2)cc1 [GSK-LSD1] + CN1CCN(c2ccc(-c3cccc(CN4CCOCC4)c3)cc2NC(=O)c2c[nH]c(=O)cc2C(F)(F)F)CC1 [OICR9429] ; system HDFB 0.00661

// output growth inhibition; input c1ccc([C@@H]2C[C@H]2NC2CCNCC2)cc1 [GSK-LSD1] + CCOC(=O)NCCCC(=O)NCCc1ccccc1 [Santacruzamate A] ; system HDFB 0.0273

// output growth inhibition; input c1ccc([C@@H]2C[C@H]2NC2CCNCC2)cc1 [GSK-LSD1] + Cc1sc2c(c1C)C(c1ccc(Cl)cc1)=N[C@@H](CC(=O)OC(C)(C)C)c1nnc(C)n1-2 [(+)-JQ1] ; system HDFB -0.0664

// output growth inhibition; input c1ccc([C@@H]2C[C@H]2NC2CCNCC2)cc1 [GSK-LSD1] + O=C(NC[C@H](O)CN1CCc2ccccc2C1)c1ccnc(NC2CCC2)c1 [GSK591] ; system HDFB 0.034
